- assay_procedure: ASTX727 Phase 1 dose escalation study: plasma decitabine pharmacokinetics (AUC)
- Assay type: in vivo, human
- assay_conditions: human, plasma, po, 20 mg, Cohort 1, N=6; oral DEC 20 mg alone, day −3; plasma decitabine; read-out: AUC0-t by day, D −3 (DEC alone), Geometric Mean (gCV %)
endpoint_name: AUC(0-t) (ng·h/mL)
Answer with a number only, understood to be in ng·h/mL.

Request: Entry `Nc1ncn([C@H]2C[C@H](O)[C@@H](CO)O2)c(=O)n1` : reported AUC(0-t) = ?
Result: 10.7
